The following compounds are listed with their measured pIC50 values.
- System: HeLa
- ASSAY DETAILS: Cytotoxicity against human HeLa cells after 72 hrs by SRB assay
- Format: functional, cell-based
pIC50: −log10 of the molar value.

{"columns": ["SMILES DATA", "pIC50"],
 "data": [
  ["CCC1=C[C@@H]2CN(CCc3c([nH]c4ccccc34)[C@@](C(=O)OC)(c3cc4c(cc3OC)N(C)[C@H]3[C@](O)(CNC(=O)OCc5ccccc5)[C@H](OC(C)=O)[C@]5(CC)C=CCN6CC[C@]43[C@@H]65)C2)C1", 7.27],
  ["CCC1=C[C@@H]2CN(CCc3c([nH]c4ccccc34)[C@@](C(=O)OC)(c3cc4c(cc3OC)N(C)[C@H]3[C@](O)(CNC(=O)OCc5cccc(Cl)c5)[C@H](OC(C)=O)[C@]5(CC)C=CCN6CC[C@]43[C@@H]65)C2)C1", 7.41],
  ["CCC1=C[C@@H]2CN(CCc3c([nH]c4ccccc34)[C@@](C(=O)OC)(c3cc4c(cc3OC)N(C)[C@H]3[C@](O)(CNC(=O)OCC(C)C)[C@H](OC(C)=O)[C@]5(CC)C=CCN6CC[C@]43[C@@H]65)C2)C1", 7.17],
  ["CCC1=C[C@@H]2CN(CCc3c([nH]c4ccccc34)[C@@](C(=O)OC)(c3cc4c(cc3OC)N(C)[C@H]3[C@](O)(CNC(=O)OCCOC)[C@H](OC(C)=O)[C@]5(CC)C=CCN6CC[C@]43[C@@H]65)C2)C1", 7.85],
  ["CCC1=C[C@@H]2CN(CCc3c([nH]c4ccccc34)[C@@](C(=O)OC)(c3cc4c(cc3OC)N(C)[C@H]3[C@](O)(CNC(=O)OCC5CC5)[C@H](OC(C)=O)[C@]5(CC)C=CCN6CC[C@]43[C@@H]65)C2)C1", 7.89],
  ["CCC1=C[C@@H]2CN(CCc3c([nH]c4ccccc34)[C@@](C(=O)OC)(c3cc4c(cc3OC)N(C)[C@H]3[C@](O)(CNC(=O)OCc5ccccc5OC)[C@H](OC(C)=O)[C@]5(CC)C=CCN6CC[C@]43[C@@H]65)C2)C1", 7.16],
  ["CCC1=C[C@@H]2CN(CCc3c([nH]c4ccccc34)[C@@](C(=O)OC)(c3cc4c(cc3OC)N(C)[C@H]3[C@](O)(CNC(=O)OCc5ccccc5[N+](=O)[O-])[C@H](OC(C)=O)[C@]5(CC)C=CCN6CC[C@]43[C@@H]65)C2)C1", 7.18],
  ["CCC1=C[C@@H]2CN(CCc3c([nH]c4ccccc34)[C@@](C(=O)OC)(c3cc4c(cc3OC)N(C)[C@H]3[C@](O)(CNC(=O)Oc5ccccc5)[C@H](OC(C)=O)[C@]5(CC)C=CCN6CC[C@]43[C@@H]65)C2)C1", 6.70]
]}

----------
The following molecules are listed with their measured IC50 values.
- Tested on: HeLa
- ASSAY DETAILS: Cytotoxicity against human HeLa cells after 72 hrs by SRB assay
- Assay type: functional, cell-based

{"columns": ["SMILES DATA", "UNIT", "IC50"],
 "data": [
  ["CCC1=C[C@@H]2CN(CCc3c([nH]c4ccccc34)[C@@](C(=O)OC)(c3cc4c(cc3OC)N(C)[C@H]3[C@](O)(CNC(=O)OCc5ccc(OC)cc5)[C@H](OC(C)=O)[C@]5(CC)C=CCN6CC[C@]43[C@@H]65)C2)C1", "µM", 0.008],
  ["CCC1=C[C@@H]2CN(CCc3c([nH]c4ccccc34)[C@@](C(=O)OC)(c3cc4c(cc3OC)N(C)[C@H]3[C@](O)(CNC(=O)OC(C)(C)C)[C@H](OC(C)=O)[C@]5(CC)C=CCN6CC[C@]43[C@@H]65)C2)C1", "µM", 0.096],
  ["CCC1=C[C@@H]2CN(CCc3c([nH]c4ccccc34)[C@@](C(=O)OC)(c3cc4c(cc3OC)N(C)[C@H]3[C@](O)(CNC(=O)Oc5ccc(OC)cc5)[C@H](OC(C)=O)[C@]5(CC)C=CCN6CC[C@]43[C@@H]65)C2)C1", "µM", 0.049],
  ["CCC1=C[C@@H]2CN(CCc3c([nH]c4ccccc34)[C@@](C(=O)OC)(c3cc4c(cc3OC)N(C)[C@H]3[C@](O)(CNC(=O)OC(C)C)[C@H](OC(C)=O)[C@]5(CC)C=CCN6CC[C@]43[C@@H]65)C2)C1", "µM", 0.027],
  ["CCCCCOC(=O)NC[C@]1(O)[C@H](OC(C)=O)[C@]2(CC)C=CCN3CC[C@@]4(c5cc([C@@]6(C(=O)OC)C[C@@H]7C=C(CC)CN(CCc8c6[nH]c6ccccc86)C7)c(OC)cc5N(C)[C@@H]14)[C@@H]32", "µM", 0.184],
  ["CCC1=C[C@@H]2CN(CCc3c([nH]c4ccccc34)[C@@](C(=O)OC)(c3cc4c(cc3OC)N(C)[C@H]3[C@](O)(CNC(=O)OCc5ccc6c(c5)OCO6)[C@H](OC(C)=O)[C@]5(CC)C=CCN6CC[C@]43[C@@H]65)C2)C1", "µM", 0.017],
  ["CCC1=C[C@@H]2CN(CCc3c([nH]c4ccccc34)[C@@](C(=O)OC)(c3cc4c(cc3OC)N(C)[C@H]3[C@](O)(CNC(=O)OC5CCCCC5)[C@H](OC(C)=O)[C@]5(CC)C=CCN6CC[C@]43[C@@H]65)C2)C1", "µM", 0.25],
  ["CCC1=C[C@@H]2CN(CCc3c([nH]c4ccccc34)[C@@](C(=O)OC)(c3cc4c(cc3OC)N(C)[C@H]3[C@](O)(CNC(=O)OCc5ccc([N+](=O)[O-])cc5)[C@H](OC(C)=O)[C@]5(CC)C=CCN6CC[C@]43[C@@H]65)C2)C1", "µM", 0.01]
]}
